All values here come from patent US12595255B2.

tested on: Acinetobacter baumannii ATCC17961; assay: Antimicrobial susceptibility testing: 90% growth inhibitory concentration (IC90) determination; assay type: cell-based; conditions: ATCC17961, 90% growth inhibitory concentration, Iso-Sensitest broth, OD 600 nm over 16 h, 35±2° C., read-out: ATCC 17961 IC90
Grouping rule (IC90): bottom bin (below 600 nM), middle bin (600 nM to below 900 nM), top bin (900 nM or more)

- CN(C)c1nc(F)c(-c2cnc(C(=O)Nc3ccc(C(=O)N4CCN(C(=O)C5(O)CCNCC5)CC4)c(Cl)c3)n2C)cc1F: bottom bin
- CN(C)c1ncc(-c2cnc(C(=O)Nc3ccc(C(=O)N4CCN(C(=O)C[C@@H]5CCNC5)CC4)c(Cl)c3)n2C)c(C(F)(F)F)n1: bottom bin
- Cc1n[nH]c2cc(F)c(-c3cnc(C(=O)Nc4ccc(C(=O)N5CCN(C(=O)C[C@@H]6CCNC6)CC5)c(Cl)c4)n3C)cc12: bottom bin

Exercise: Entry Cn1c(-c2ccc(Cl)nc2Cl)cnc1C(=O)Nc1ccc(C(=O)N2CCN(C(=O)C3CCNCC3)CC2)c(Cl)c1 belongs to which category?
Key: middle bin

Exercise: Entry Cc1nc(N(C)C)ccc1-c1cnc(C(=O)Nc2ccc(C(=O)N3CCN(C(=O)C4CCNCC4)CC3)c(Cl)c2)n1C belongs to which category?
Key: top bin

Exercise: Entry COc1ncc(-c2cnc(C(=O)Nc3ccc(C(=O)N4CCN(C(=O)C5CCNCC5)CC4)c(Cl)c3)n2C)c(C(F)(F)F)n1 belongs to which category?
Key: top bin

Exercise: Entry CN(C)c1nc(F)c(-c2cnc(C(=O)Nc3ccc(C(=O)N4CCN(C(=O)C[N+](C)(C)C)CC4)c(Cl)c3)n2C)cc1F [Example D1] belongs to which category?
Key: middle bin

Exercise: Entry Cc1cc(NC(=O)c2ncc(-c3cc(F)c(N(C)C)nc3F)n2C)ccc1C(=O)N1CCN(C(=O)CN(C)C)CC1 belongs to which category?
Key: top bin

Exercise: Entry CN(C)c1nc(F)c(-c2cnc(C(=O)Nc3ccc(C(=O)N4CCC(C(=O)NC5CC[N+](C)(C)C5)CC4)c(Cl)c3)n2C)cc1F (centres unmarked) belongs to which category?
Key: middle bin

Exercise: Entry Cn1c(-c2ccc3[nH]nc(C(F)(F)F)c3c2)cnc1C(=O)Nc1ccc(C(=O)N2CCN(C(=O)C[C@@H]3CCNC3)CC2)c(Cl)c1 belongs to which category?
Key: bottom bin

Exercise: Entry CN(C)c1nc(F)c(-c2cnc(C(=O)Nc3ccc(C(=O)NCCCCCC[N+](C)(C)C)c(Cl)c3)n2C)cc1F belongs to which category?
Key: top bin

----------
System: Acinetobacter baumannii ATCC17961
Assay: Antimicrobial susceptibility testing: 90% growth inhibitory concentration (IC90) determination
Type: cell-based
Conditions: ATCC17961, 90% growth inhibitory concentration, Iso-Sensitest broth, OD 600 nm over 16 h, 35±2° C., read-out: ATCC 17961 IC90
Experimental: Assay Procedures Antimicrobial Susceptibility Testing: 90% Growth Inhibitory Concentration (IC90) Determination The in vitro antimicrobial activity of the compounds was determined according to the following procedure: The assay used a 10-points Iso-Sensitest broth medium to measure quantitatively the in vitro activity of the compounds against Acinetobacter baumannii ATCC17961. […]
quantity: IC90 (nM)
Numeric only. Scale: nM

Reference set, count: 4
• Cn1c(-c2cccc3[nH]ccc23)cnc1C(=O)Nc1ccc(C(=O)N2CCN(C(=O)C3CCNCC3)CC2)c(Cl)c1 [Example A12] = 490
• CN(C)c1ccc(-c2cnc(C(=O)Nc3ccc(C(=O)N4CCN(C(=O)C5CCNCC5)CC4)c(Cl)c3)n2C)c(Cl)n1 [Example E5] = 470
• COc1cc(Cl)c(-c2cnc(C(=O)Nc3ccc(C(=O)N4CCN(C(=O)C5CCNCC5)CC4)c(Cl)c3)n2C)cn1 [Example A15] = 660
• COc1ccc(-c2cnc(C(=O)Nc3ccc(C(=O)N4CCN(C(=O)[C@@H]5[C@@H]6CNC[C@@H]65)CC4)c(Cl)c3)n2C)c(C(F)(F)F)n1 [Example A18] = 260

Exercise: State, for Acinetobacter baumannii ATCC17961, measured IC90 of the compound listed here: COc1ccc(-c2cnc(C(=O)Nc3ccc(C(=O)N4CCN(C(=O)[C@@H]5C[C@@H](O)CN5)CC4)c(Cl)c3)n2C)c(C(F)(F)F)n1 [Example A17]
Key: 360

Exercise: State, for Acinetobacter baumannii ATCC17961, measured IC90 of the compound listed here: COc1ccc(-c2cnc(C(=O)Nc3ccc(C(=O)N4CCN(C(=O)C[C@@H]5CCNC5)CC4)c(Cl)c3)n2C)c(C(F)(F)F)n1 [Example A14]
Key: 230

Exercise: State, for Acinetobacter baumannii ATCC17961, measured IC90 of the compound listed here: CN(C)CC(=O)N1CCN(C(=O)c2ccc(NC(=O)c3ncc(-c4cc(F)c(N(C)C)nc4F)n3C)cc2Cl)CC1 [Example C1]
Key: 530

Exercise: State, for Acinetobacter baumannii ATCC17961, measured IC90 of the compound listed here: CN(C)c1nc(F)c(-c2cnc(C(=O)Nc3ccc(C(=O)N4CCN(C(=O)C5CC[N+](C)(C)CC5)CC4)c(Cl)c3)n2C)cc1F [Example D4]
Key: 600

Exercise: State, for Acinetobacter baumannii ATCC17961, measured IC90 of the compound listed here: Cn1c(-c2ccc3c(c2)OCCO3)cnc1C(=O)Nc1ccc(C(=O)N2CCN(C(=O)C3CCNCC3)CC2)c(Cl)c1 [Example A20]
Key: 520

----------
Catalogue of IC90 values
system: Acinetobacter baumannii ATCC17961; assay: Antimicrobial susceptibility testing: 90% growth inhibitory concentration (IC90) determination; assay type: cell-based; conditions: ATCC17961, 90% growth inhibitory concentration, Iso-Sensitest broth, OD 600 nm over 16 h, 35±2° C., read-out: ATCC 17961 IC90
Numeric only. Scale: µM

Reference set, count: 5
- CN(C)c1ccc(-c2cnc(C(=O)Nc3ccc(C(=O)N4CCN(C(=O)C5CCNCC5)CC4)c(Cl)c3)n2C)c(F)n1: 0.47
- COc1cc(-c2cnc(C(=O)Nc3ccc(C(=O)N4CCN(C(=O)C5CCNCC5)CC4)c(Cl)c3)n2C)c(Cl)cn1: 0.57
- CN(C)c1nc(F)c(-c2cnc(C(=O)Nc3ccc(C(=O)N4CCN(C(=O)C5CCNC5)CC4)c(Cl)c3)n2C)cc1F (stereo not drawn): 0.74
- CN(C)c1nc(F)c(-c2cnc(C(=O)Nc3ccc(C(=O)NC4CCN(C(=O)[C@@H]5C[C@@H](O)C[N+]5(C)C)CC4)c(Cl)c3)n2C)cc1F: 2.8
- CN(C)c1nc(F)c(-c2cnc(C(=O)Nc3ccc(C(=O)N4CCN(C(=O)C5CCNCC5)CC4)c(Cl)c3)n2C)cc1F [Example E2]: 0.19

Shifting focus to the compound that follows.
Exercise: Give IC90 for the following compound: Cn1c(-c2c(Cl)ccc3[nH]ccc23)cnc1C(=O)Nc1ccc(C(=O)N2CCN(C(=O)C[C@@H]3CCNC3)CC2)c(Cl)c1
Key: 0.29

----------
Test system: Acinetobacter baumannii ATCC17961
Test: Antimicrobial susceptibility testing: 90% growth inhibitory concentration (IC90) determination
Format: cell-based
Conditions: ATCC17961, 90% growth inhibitory concentration, Iso-Sensitest broth, OD 600 nm over 16 h, 35±2° C., read-out: ATCC 17961 IC90
Protocol: Assay Procedures Antimicrobial Susceptibility Testing: 90% Growth Inhibitory Concentration (IC90) Determination The in vitro antimicrobial activity of the compounds was determined according to the following procedure: The assay used a 10-points Iso-Sensitest broth medium to measure quantitatively the in vitro activity of the compounds against Acinetobacter baumannii ATCC17961. […]
quantity: IC90 (nM)
Numeric only. Scale: nM

- CN(C)c1nc(F)c(-c2cnc(C(=O)Nc3ccc(C(=O)N4CCN(C(=O)C5CC[N+](C)(C)C5)CC4)c(Cl)c3)n2C)cc1F (stereo not drawn) [Example D5]: 590
- CN(C)c1nc(F)c(-c2cnc(C(=O)Nc3ccc(C(=O)N4CCN(C(=O)C5CC(CN)C5)CC4)c(Cl)c3)n2C)cc1F (stereo not drawn) [Example F7]: 390
- CN(C)c1nc(F)c(-c2cnc(C(=O)Nc3ccc(C(=O)N4CCN(C(=O)C[C@@H]5CCNC5)CC4)c(Cl)c3)n2C)cc1F [Example F2]: 230
- COc1ccc(-c2cnc(C(=O)Nc3ccc(C(=O)N4CCN(C(=O)C5CCNCC5)CC4)c(Cl)c3)n2C)c(C(F)(F)F)n1 [Example A16]: 280
- CN(C)c1nc(F)c(-c2cnc(C(=O)Nc3ccc(C(=O)N4CCN(C(=O)C5CC(C[N+](C)(C)C)C5)CC4)c(Cl)c3)n2C)cc1F (stereo not drawn) [Example D11]: 1500

Exercise: Give IC90 for the following molecule: CN(C)c1nc(F)c(-c2cnc(C(=O)Nc3ccc(C(=O)NCCCCCCN)c(Cl)c3)n2C)cc1F [Example B1]
Key: 1700

Exercise: Give IC90 for the following molecule: CN(C)c1nc(F)c(-c2cnc(C(=O)Nc3ccc(C(=O)N4CCN(C(=O)CC5CC[N+](C)(C)CC5)CC4)c(Cl)c3)n2C)cc1F [Example D7]
Key: 760

Exercise: Give IC90 for the following molecule: CN(C)c1nc(F)c(-c2cnc(C(=O)Nc3ccc(C(=O)N4CCN(C(=O)CC5CCNCC5)CC4)c(Cl)c3)n2C)cc1F [Example F6]
Key: 660

Exercise: Give IC90 for the following molecule: CN(C)c1nc(F)c(-c2cnc(C(=O)Nc3ccc(C(=O)N4CCN(C(=O)CC5(O)CCNCC5)CC4)c(Cl)c3)n2C)cc1F [Example F3]
Key: 430

Exercise: Give IC90 for the following molecule: COc1ccc(-c2cnc(C(=O)Nc3ccc(C(=O)N4CCN(C(=O)C5CCNCC5)CC4)c(Cl)c3)n2C)c(C(F)F)n1 [Example A19]
Key: 910

Exercise: Give IC90 for the following molecule: Cn1c(-c2cccc3c2ccn3C)cnc1C(=O)Nc1ccc(C(=O)N2CCN(C(=O)C3CCNCC3)CC2)c(Cl)c1 [Example A13]
Key: 1100

Exercise: Give IC90 for the following molecule: CN(C)c1nc(F)c(-c2cnc(C(=O)Nc3ccc(C(=O)N4CCC(C(=O)NC5CCNC5)CC4)c(Cl)c3)n2C)cc1F (stereo not drawn) [Example F10]
Key: 640
